- EXPERIMENTAL TARGET: full length recombinant human protein 4.1G (human, UniProt O43491 1-1005)
- Sequence (O43491 whole entry): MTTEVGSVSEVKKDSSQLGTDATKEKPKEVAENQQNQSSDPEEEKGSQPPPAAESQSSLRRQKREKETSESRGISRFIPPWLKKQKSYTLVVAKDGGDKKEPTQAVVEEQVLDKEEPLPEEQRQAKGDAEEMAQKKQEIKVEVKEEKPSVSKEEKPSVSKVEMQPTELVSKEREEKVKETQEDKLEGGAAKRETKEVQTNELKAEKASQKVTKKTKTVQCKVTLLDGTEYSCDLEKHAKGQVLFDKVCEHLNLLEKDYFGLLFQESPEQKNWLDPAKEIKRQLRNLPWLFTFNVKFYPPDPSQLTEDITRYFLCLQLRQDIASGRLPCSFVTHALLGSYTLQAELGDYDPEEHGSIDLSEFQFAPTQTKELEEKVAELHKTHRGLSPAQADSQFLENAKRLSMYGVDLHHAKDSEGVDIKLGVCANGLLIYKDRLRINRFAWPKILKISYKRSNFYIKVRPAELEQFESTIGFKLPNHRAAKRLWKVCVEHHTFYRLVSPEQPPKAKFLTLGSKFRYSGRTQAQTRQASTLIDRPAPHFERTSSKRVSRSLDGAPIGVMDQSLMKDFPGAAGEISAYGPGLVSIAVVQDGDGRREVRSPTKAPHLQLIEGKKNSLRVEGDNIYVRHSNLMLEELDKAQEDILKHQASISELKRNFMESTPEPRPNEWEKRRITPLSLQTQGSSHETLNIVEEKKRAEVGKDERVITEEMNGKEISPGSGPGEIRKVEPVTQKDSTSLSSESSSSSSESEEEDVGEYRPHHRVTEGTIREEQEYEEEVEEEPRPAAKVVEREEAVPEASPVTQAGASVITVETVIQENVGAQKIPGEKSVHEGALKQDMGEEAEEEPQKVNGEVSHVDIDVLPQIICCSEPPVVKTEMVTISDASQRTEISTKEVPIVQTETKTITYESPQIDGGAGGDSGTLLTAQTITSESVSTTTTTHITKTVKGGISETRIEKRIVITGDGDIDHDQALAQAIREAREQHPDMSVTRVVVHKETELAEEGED
- ASSAY INFO: resonant mirror detection
OBSERVATION TYPE: pKd
Kindly note that pKd refers to -log10 of the concentration in mol/L and answer with the value alone.

Quick check: pKd of cytoplasmic domain of CD44 (domain or fragment, UniProt P16070 671-742, looked up) NSRRRCGQKKKLVINSGNGAVEDRKPSGLNGEASKSQEMVHLVNKESSETPDQFMTADETRNLQNVDMKIGV ? 6.75

Hey, just so you know, these numbers are from paper PMC4371549.
